# assayText: Single ascending oral dose study in healthy volunteers: plasma pharmacokinetics
# Type: in vivo, human
# appliedConditions: human, plasma, oral, 350 mg + 525 mg; read-out: AUC0-24, Median
valueKind: AUC(0-t) (ng·h/mL)
Quick reminder: number only, in ng·h/mL, skip the unit.

Inquiry: AUC(0-t) for Cn1cc(S(=O)(=O)[C@@](C)(F)C2CCN(C(=O)Nc3ccon3)CC2)c(C(F)F)n1 ?
Reply text: 38500

###

# assayText: Single ascending oral dose study in healthy volunteers: plasma pharmacokinetics
# Assay type: in vivo, human
# appliedConditions: human, plasma, oral, 350 mg, 24 Hours Postdose; 350 mg; read-out: Plasma concentration, Mean
valueKind: concentration at 24 h
Respond with the figure and its unit, in that order.

Inquiry: // query concentration at 24 h value for entry Cn1cc(S(=O)(=O)[C@@](C)(F)C2CCN(C(=O)Nc3ccon3)CC2)c(C(F)F)n1 [Compound I]
Reply text: 1320 ng/mL

Data provenance is patent US20220265629A1.
